Listing of entries alongside the reported EC50.
# Test system: A. fumigatus
# assay_explanation: Inhibition of A. fumigatus growth
# Format: cell-based
# stated_conditions: Aspergillus fumigatus; read-out: A. fumigatus growth inhibition EC50 (Figure 4A)
measure_name: EC50 (µM)

• C[C@@H](c1ncncc1F)[C@](O)(Cn1cncn1)c1ccc(F)cc1F [Voriconazole, voriconazole] = 0.5
• COc1cnc(OC)n2nc(NS(=O)(=O)c3c(OCC(F)F)cccc3C(F)(F)F)nc12 [compound 3, penoxsulam] = 23
• COC(=O)c1ccccc1CS(=O)(=O)NC(=O)Nc1nc(OC)cc(OC)n1 [compound 2, bensulfuron methyl] = 57
• CCCC1C(C)=CC2CC=CC3(C)C2C1C(=O)C31C(=O)NC(CCCO)C1=O (stereo not shown) [compound 1] = 0.7
